# System: SARS-CoV-2 Spike protein pseudotyped lentiviral particles
# assay: microbe, parasite or virus in culture
# Format: cell-based
# testParameters: Severe acute respiratory syndrome coronavirus 2, HEK293, read-out: half-maximal effective concentration (EC50), neutralization of SARS-CoV2 infection
recordedMetric: pEC50
Bear in mind: pEC50 is minus log10 of a mol/L concentration; give just that figure.

Data request: Name the recorded pEC50 for O=C1Nc2ccccc2/C1=C\c1ccc(-c2cc(C(F)(F)F)cc(C(F)(F)F)c2)o1 [CD04872SC] .
Data returned: 3.61
